self-splicing fitness (ln) values for the sequences below.
Method notes: self-splicing fitness, log relative to wild type (ln ratio); higher = more splicing; Tetrahymena group I intron in knt gene, E. coli kanamycin selection, DiMSum; sequences stand for … in CUCUCU…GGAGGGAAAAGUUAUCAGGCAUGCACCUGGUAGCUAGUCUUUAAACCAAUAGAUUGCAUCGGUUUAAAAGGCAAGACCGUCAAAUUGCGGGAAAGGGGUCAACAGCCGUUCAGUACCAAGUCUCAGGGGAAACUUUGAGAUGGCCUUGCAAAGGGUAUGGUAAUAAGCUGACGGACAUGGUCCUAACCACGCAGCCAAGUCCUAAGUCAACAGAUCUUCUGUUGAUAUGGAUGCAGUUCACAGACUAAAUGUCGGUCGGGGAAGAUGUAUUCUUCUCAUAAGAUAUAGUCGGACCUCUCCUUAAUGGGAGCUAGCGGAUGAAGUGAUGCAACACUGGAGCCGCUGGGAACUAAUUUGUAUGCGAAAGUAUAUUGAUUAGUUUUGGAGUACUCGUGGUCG;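 further: selection with 25 µg/mL kanamycin versus none on LB agar overnight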
Measurement setup: 37 °C
Quantity name: self-splicing fitness (ln)

# Chain sequence, Quantity name, Measured value
data = [
    ("UCCCAGCAAUAUUACGCAGC", "self-splicing fitness (ln)", -3.19),
    ("ACCUAGCAAUAUUACGAUGG", "self-splicing fitness (ln)", -0.981),
    ("GCGCAGCAAUAUUACGGAAG", "self-splicing fitness (ln)", -1.66),
    ("UUCUAGCAAUAUUACGACUU", "self-splicing fitness (ln)", -1.59),
    ("CCGAAGCAAUAUUACGGGCA", "self-splicing fitness (ln)", -2.82),
    ("UAGGAGCAAUAUUACGAACG", "self-splicing fitness (ln)", -0.578),
    ("AGCCAGCAAUAUUACGUAGU", "self-splicing fitness (ln)", -1.83),
    ("GAUAAGCAAUAUUACGCCCA", "self-splicing fitness (ln)", -0.865),
    ("GCCUAGCAAUAUUACGCGCG", "self-splicing fitness (ln)", -1.18),
    ("UUUCAGCAAUAUUACGUCCG", "self-splicing fitness (ln)", -1),
    ("GUGUAGCAAUAUUACGUGCC", "self-splicing fitness (ln)", -2.7),
    ("CAGUAGCAAUAUUACGGCCG", "self-splicing fitness (ln)", 0.348),
    ("CAAAAGCAAUAUUACGGUUG", "self-splicing fitness (ln)", -1.17),
    ("UAAUAGCAAUAUUACGUCAA", "self-splicing fitness (ln)", -1.77),
    ("GCGAAGCAAUAUUACGGUGU", "self-splicing fitness (ln)", -2.66),
    ("CAGAAGCAAUAUUACGACGU", "self-splicing fitness (ln)", -0.618),
    ("GAAGAGCAAUAUUACGACAU", "self-splicing fitness (ln)", -1.35),
    ("AGACAGCAAUAUUACGGACC", "self-splicing fitness (ln)", -0.201),
    ("GUGUAGCAAUAUUACGUCCA", "self-splicing fitness (ln)", -0.639),
    ("AUUUAGCAAUAUUACGCGGG", "self-splicing fitness (ln)", -1.96),
    ("CGGAAGCAAUAUUACGAGAG", "self-splicing fitness (ln)", -1.65),
    ("GCUGAGCAAUAUUACGACAU", "self-splicing fitness (ln)", -1.08),
    ("GACCAGCAAUAUUACGGUGC", "self-splicing fitness (ln)", -2.09),
    ("CAAUAGCAAUAUUACGCGAU", "self-splicing fitness (ln)", -2.92),
    ("ACUUAGCAAUAUUACGUUAC", "self-splicing fitness (ln)", -2.55),
    ("GAUCAGCAAUAUUACGUAGG", "self-splicing fitness (ln)", -1.48),
    ("CAUCAGCAAUAUUACGAUAC", "self-splicing fitness (ln)", -1.75),
    ("CGAGAGCAAUAUUACGGUUG", "self-splicing fitness (ln)", -1.21),
    ("AACAAGCAAUAUUACGGCGG", "self-splicing fitness (ln)", -0.826),
    ("GGUAAGCAAUAUUACGGACA", "self-splicing fitness (ln)", -0.0615),
    ("UAUAAGCAAUAUUACGUAUU", "self-splicing fitness (ln)", -1.61),
    ("CAGAAGCAAUAUUACGGUCA", "self-splicing fitness (ln)", -1.15),
    ("CGGAAGCAAUAUUACGACCU", "self-splicing fitness (ln)", 0.399),
    ("CUCUAGCAAUAUUACGGUUC", "self-splicing fitness (ln)", -2.46),
]
